Cited source: the supplement of paper PMC11061612

Tested on: KYAE-1 (Esophageal Adenocarcinoma)
EXPERIMENTAL_PROTOCOL: combination Emax (second highest fraction inhibited in the dose matrix, 72 h); higher = more inhibition; extreme values may be limits of the assay
REPORTED_PROPERTY: combination Emax
Field format: numeric only.

[Q] # query: combination Emax of entry CC(=O)c1c(C)c2cnc(Nc3ccc(N4CCNCC4)cn3)nc2n(C2CCCC2)c1=O [Palbociclib] + CC1(C)CCC(CN2CCN(c3ccc(C(=O)NS(=O)(=O)c4ccc(NCC5CCOCC5)c([N+](=O)[O-])c4)c(Oc4cnc5[nH]ccc5c4)c3)CC2)=C(c2ccc(Cl)cc2)C1 [Venetoclax] (first compound max 10 µM, 7x7, partner max 1 µM)
[A] 0.132

Others:
[Q] // combination Emax lookup, key: Cn1cnc2c(F)c(Nc3ccc(Br)cc3Cl)c(C(=O)NOCCO)cc21 [Selumetinib] + CCN(CCO)CCCOc1ccc2c(Nc3cc(CC(=O)Nc4cccc(F)c4)[nH]n3)ncnc2c1 [AZD2811] (first compound max 10 µM, 7x7, partner max 1 µM)
[A] 0.0661

----------
System: OE21 (Esophageal Squamous Cell Carcinoma)
EXPERIMENTAL_PROTOCOL: Bliss excess, mean over the matrix (fraction); higher = more synergy
Assign y whenever Bliss excess does not fall below -0.01; assign n whenever it does.

[Q] Test whether the compound Cc1c2c(nn1C)CSCc1cc(n(C)n1)CSc1cc(c3ccccc3c1)OCCCc1c(C(=O)O)n(C)c3c-2c(Cl)ccc13 [AZD5991] + C=CCn1c(=O)c2cnc(Nc3ccc(N4CCN(C)CC4)cc3)nc2n1-c1cccc(C(C)(C)O)n1 [AZD1775] (first compound max 1 µM, partner max 1 µM) records Bliss excess of -0.01 or higher.
[A] n

[Q] Kindly determine if Bliss excess recorded for C=CCn1c(=O)c2cnc(Nc3ccc(N4CCN(C)CC4)cc3)nc2n1-c1cccc(C(C)(C)O)n1 [AZD1775] + O=C(c1cc(Cc2n[nH]c(=O)c3ccccc23)ccc1F)N1CCN(C(=O)C2CC2)CC1 [Olaparib] (first compound max 1 µM, partner max 10 µM) is above or exactly -0.01.
[A] n

[Q] Is Bliss excess for CCc1c2c(nc3ccc(O)cc13)-c1cc3c(c(=O)n1C2)COC(=O)[C@]3(O)CC [SN-38] + CN(C)CCCOc1ccc(-c2ccc3ncc4c(c3c2)n(C2CCOCC2)c(=O)n4C)cn1 [AZD0156] (first compound max 0.3 µM, 7x7, partner max 1 µM) at or above -0.01?
[A] n

[Q] Tell me whether Bliss excess is at least -0.01 here: COc1cccc(OCCCN)c1-c1cc(Nc2cnc(C#N)cn2)n[nH]1 [Prexasertib] + CN(C)CCCOc1ccc(-c2ccc3ncc4c(c3c2)n(C2CCOCC2)c(=O)n4C)cn1 [AZD0156] (first compound max 1 µM, 7x7, partner max 1 µM)
[A] n

[Q] Bliss excess >= -0.01 for Cn1cnc2c(F)c(Nc3ccc(Br)cc3Cl)c(C(=O)NOCCO)cc21 [Selumetinib] + CCN(CCO)CCCOc1ccc2c(Nc3cc(CC(=O)Nc4cccc(F)c4)[nH]n3)ncnc2c1 [AZD2811] (first compound max 10 µM, 7x7, partner max 1 µM) ?
[A] y

Others:
[Q] Reported Bliss excess reaches at least -0.01 for Cc1nc(Nc2ncc(C(=O)Nc3c(C)cccc3Cl)s2)cc(N2CCN(CCO)CC2)n1 [Dasatinib] + CC(=O)Nc1cccc(-n2c(=O)n(C3CC3)c(=O)c3c(Nc4ccc(I)cc4F)n(C)c(=O)c(C)c32)c1 [Trametinib] (first compound max 2 µM, 7x7, partner max 1 µM) ?
[A] n

[Q] // inclusive: Bliss excess at least -0.01? input: Cc1cc2ncnn2cc1Nc1ncc2c(n1)n(C1CCOCC1)c(=O)n2C [AZD7648] + O=C(c1cc(Cc2n[nH]c(=O)c3ccccc23)ccc1F)N1CCN(C(=O)C2CC2)CC1 [Olaparib] (first compound max 10 µM, 7x7, partner max 10 µM)
[A] n

[Q] Is Bliss excess at least -0.01? Consider CC(=O)c1c(C)c2cnc(Nc3ccc(N4CCNCC4)cn3)nc2n(C2CCCC2)c1=O [Palbociclib] + CC1(C)CCC(CN2CCN(c3ccc(C(=O)NS(=O)(=O)c4ccc(NCC5CCOCC5)c([N+](=O)[O-])c4)c(Oc4cnc5[nH]ccc5c4)c3)CC2)=C(c2ccc(Cl)cc2)C1 [Venetoclax] (first compound max 10 µM, 7x7, partner max 1 µM)
[A] y

[Q] Form field: Bliss excess at least -0.01? Entry: NC1(C(=O)N[C@@H](CCO)c2ccc(Cl)cc2)CCN(c2ncnc3[nH]ccc23)CC1 [Capivasertib] + C[C@@H]1COCCN1C2=NC(=NC(=C2)C3(CC3)[S@](=N)(=O)C)C4=C5C=CNC5=NC=C4 [AZD6738] (first compound max 10 µM, 7x7, partner max 10 µM)
[A] n

----------
System: OV-56 (Ovarian Carcinoma)
EXPERIMENTAL_PROTOCOL: Bliss excess, mean over the matrix (fraction); higher = more synergy
Item-by-item account of Bliss excess

[Q] Value lookup for Bliss excess; key = COc1nnc2ccc(N3CCC(c4ccc(OCCN5CCN(C)C(=O)[C@H]5C)cc4)CC3)nn12 [AZD5153] + CN(CC[C@H](CSC1=CC=CC=C1)NC2=C(C=C(C=C2)S(=O)(=O)NC(=O)C3=CC=C(C=C3)N4CCC(CC4)[C@H](C5=CC=CC=C5C6=CC=C(C=C6)Cl)O)S(=O)(=O)C(F)(F)F)CCO [AZD4320] (first compound max 1 µM, 7x7, partner max 1 µM)
[A] 0.015

// switching to the query compound
[Q] For the compound shown here, NC1(C(=O)N[C@@H](CCO)c2ccc(Cl)cc2)CCN(c2ncnc3[nH]ccc23)CC1 [Capivasertib] + CC(C)n1c(=O)n(C)c2cnc3cc(F)c(-c4ccc(OCCCN5CCCCC5)nc4)cc3c21 [AZD1390] (first compound max 10 µM, 7x7, partner max 0.3 µM) , give the reported Bliss excess.
[A] -0.044

----------
The reader will find reported combination Emax values listed item by item below.
Tested on: MPP-89 (Mesothelioma)
EXPERIMENTAL_PROTOCOL: combination Emax (second highest fraction inhibited in the dose matrix, 72 h); higher = more inhibition; extreme values may be limits of the assay
// no unit string in output, number only

[Q] Sample COc1cccc(OCCCN)c1-c1cc(Nc2cnc(C#N)cn2)n[nH]1 [Prexasertib] + CCc1c2c(nc3ccc(O)cc13)-c1cc3c(c(=O)n1C2)COC(=O)[C@]3(O)CC [SN-38] (first compound max 1 µM, 7x7, partner max 0.3 µM) — what was its combination Emax?
[A] 0.897

Then this compound:
[Q] # combination Emax lookup, item Cc1c2c(nn1C)CSCc1cc(n(C)n1)CSc1cc(c3ccccc3c1)OCCCc1c(C(=O)O)n(C)c3c-2c(Cl)ccc13 [AZD5991] + Cc1cc2ncnn2cc1Nc1ncc2c(n1)n(C1CCOCC1)c(=O)n2C [AZD7648] (first compound max 1 µM, 7x7, partner max 10 µM)
[A] 0.343

----------
Test system: NCI-H2052 (Mesothelioma)
EXPERIMENTAL_PROTOCOL: Bliss excess, mean over the matrix (fraction); higher = more synergy
REPORTED_PROPERTY: Bliss excess
Number only, please.

[Q] Entry CC(=O)c1c(C)c2cnc(Nc3ccc(N4CCNCC4)cn3)nc2n(C2CCCC2)c1=O [Palbociclib] + Cc1c2c(nn1C)CSCc1cc(n(C)n1)CSc1cc(c3ccccc3c1)OCCCc1c(C(=O)O)n(C)c3c-2c(Cl)ccc13 [AZD5991] (first compound max 10 µM, 7x7, partner max 1 µM) : reported Bliss excess = ?
[A] -0.0298

[Q] Quick one: Bliss excess of COc1nnc2ccc(N3CCC(c4ccc(OCCN5CCN(C)C(=O)[C@H]5C)cc4)CC3)nn12 [AZD5153] + Cc1c2c(nn1C)CSCc1cc(n(C)n1)CSc1cc(c3ccccc3c1)OCCCc1c(C(=O)O)n(C)c3c-2c(Cl)ccc13 [AZD5991] (first compound max 1 µM, 7x7, partner max 1 µM) ?
[A] -0.018

[Q] Quick check: Bliss excess of Cc1c2c(nn1C)CSCc1cc(n(C)n1)CSc1cc(c3ccccc3c1)OCCCc1c(C(=O)O)n(C)c3c-2c(Cl)ccc13 [AZD5991] + CN(C)CCCOc1ccc(-c2ccc3ncc4c(c3c2)n(C2CCOCC2)c(=O)n4C)cn1 [AZD0156] (first compound max 1 µM, 7x7, partner max 1 µM) ?
[A] -0.0027

[Q] Recorded Bliss excess for Cn1cnc2c(F)c(Nc3ccc(Br)cc3Cl)c(C(=O)NOCCO)cc21 [Selumetinib] + C[C@@H]1COCCN1C2=NC(=NC(=C2)C3(CC3)[S@](=N)(=O)C)C4=C5C=CNC5=NC=C4 [AZD6738] (first compound max 10 µM, 7x7, partner max 10 µM) , please?
[A] 0.0119

----------
Entries annotated with measured combination Emax
System: YAPC (Pancreatic Carcinoma)
EXPERIMENTAL_PROTOCOL: combination Emax (second highest fraction inhibited in the dose matrix, 72 h); higher = more inhibition; extreme values may be limits of the assay
Returns: the value as a bare number; no unit string appended.

[Q] May I ask what combination Emax has been recorded for CN(C)CCCOc1ccc(-c2ccc3ncc4c(c3c2)n(C2CCOCC2)c(=O)n4C)cn1 [AZD0156] + O=C(c1cc(Cc2n[nH]c(=O)c3ccccc23)ccc1F)N1CCN(C(=O)C2CC2)CC1 [Olaparib] (first compound max 3 µM, partner max 3 µM) ?
[A] 0.283

New cases:
[Q] Would you kindly share the measured combination Emax for CN(CCO)CC[C@H](CSc1ccccc1)Nc1ccc(S(=O)(=O)NC(=O)c2ccc(N3CCC([C@@H](O)c4ccccc4-c4ccc(Cl)cc4)CC3)cc2)cc1S(=O)(=O)C(F)(F)F [AZD4320] + C=CCn1c(=O)c2cnc(Nc3ccc(N4CCN(C)CC4)cc3)nc2n1-c1cccc(C(C)(C)O)n1 [AZD1775] (first compound max 1 µM, partner max 1 µM) ?
[A] 0.278

[Q] Please look up its combination Emax: COc1cc2c(cc1OCCCCCOc1cc3c(cc1OC)C(=O)N1C=C(C)C[C@H]1C=N3)N=C[C@@H]1CC(C)=CN1C2=O [SG3199] + O=C(c1cc(Cc2n[nH]c(=O)c3ccccc23)ccc1F)N1CCN(C(=O)C2CC2)CC1 [Olaparib] (first compound max 0.001 µM, 7x7, partner max 10 µM)
[A] 0.0017
